experiment_description: self-splicing fitness, log relative to wild type (ln ratio); higher = more splicing; Tetrahymena group I intron in knt gene, E. coli kanamycin selection, DiMSum; sequences stand for … in CUCUCU…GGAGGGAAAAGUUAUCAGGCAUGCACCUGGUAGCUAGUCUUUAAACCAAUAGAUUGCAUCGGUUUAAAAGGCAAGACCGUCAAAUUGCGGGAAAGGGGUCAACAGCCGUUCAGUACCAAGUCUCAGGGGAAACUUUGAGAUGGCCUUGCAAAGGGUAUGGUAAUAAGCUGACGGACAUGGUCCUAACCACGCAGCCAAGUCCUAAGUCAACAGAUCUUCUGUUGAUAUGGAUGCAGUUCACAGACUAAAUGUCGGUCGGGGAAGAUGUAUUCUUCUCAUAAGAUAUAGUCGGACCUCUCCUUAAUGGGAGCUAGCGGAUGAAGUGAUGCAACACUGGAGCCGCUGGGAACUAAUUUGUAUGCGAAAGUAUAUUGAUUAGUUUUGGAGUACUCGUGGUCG;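 further: selection with 25 µg/mL kanamycin versus none on LB agar overnight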
test_conditions: 37 °C
For each of the sequences below, state its self-splicing fitness (ln).
One number for each entry.

Examples with answers:
- sequence_record: "AGACAGCAAUAUUACGACAA"
  result_value: -1.02
- sequence_record: "AGAAAGCAAUAUUACGUCAG"
  result_value: -0.978

Please find the next sequence below.
For this sequence ( UAUAAGCAAUAUUACGUAUC ), measured self-splicing fitness (ln) is -2.03

====

I'd appreciate it if you could supply self-splicing fitness (ln) values for the items below.
experiment_description: self-splicing fitness, log relative to wild type (ln ratio); higher = more splicing; Tetrahymena group I intron in knt gene, E. coli kanamycin selection, DiMSum; sequences stand for … in CUCUCU…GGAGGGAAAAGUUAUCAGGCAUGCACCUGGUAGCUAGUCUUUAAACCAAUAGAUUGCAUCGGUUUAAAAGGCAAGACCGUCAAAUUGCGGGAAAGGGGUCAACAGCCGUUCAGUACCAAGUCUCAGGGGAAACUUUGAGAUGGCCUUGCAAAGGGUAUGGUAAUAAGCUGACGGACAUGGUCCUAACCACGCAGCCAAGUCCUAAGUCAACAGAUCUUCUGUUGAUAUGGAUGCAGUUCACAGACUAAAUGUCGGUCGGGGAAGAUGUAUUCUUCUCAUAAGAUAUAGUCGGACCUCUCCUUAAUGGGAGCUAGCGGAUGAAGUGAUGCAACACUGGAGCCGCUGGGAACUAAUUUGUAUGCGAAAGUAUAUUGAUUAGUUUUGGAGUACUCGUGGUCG
test_conditions: 30 °C
Numbers only.

- sequence_record: "CAUUAGCAAUAUUACGUGUG"
  self-splicing fitness (ln): -2.91

// each sequence listed below needs its self-splicing fitness (ln)
1. UCCCAGCAAUAUUACGCAAC
2. CCACAGCAAUAUUACGGCAA

Outgoing:
[-3.01, -2.92]

====

experiment_description: self-splicing fitness, log relative to wild type (ln ratio); higher = more splicing; Tetrahymena group I intron in knt gene, E. coli kanamycin selection, DiMSum; sequences stand for … in CUCUCU…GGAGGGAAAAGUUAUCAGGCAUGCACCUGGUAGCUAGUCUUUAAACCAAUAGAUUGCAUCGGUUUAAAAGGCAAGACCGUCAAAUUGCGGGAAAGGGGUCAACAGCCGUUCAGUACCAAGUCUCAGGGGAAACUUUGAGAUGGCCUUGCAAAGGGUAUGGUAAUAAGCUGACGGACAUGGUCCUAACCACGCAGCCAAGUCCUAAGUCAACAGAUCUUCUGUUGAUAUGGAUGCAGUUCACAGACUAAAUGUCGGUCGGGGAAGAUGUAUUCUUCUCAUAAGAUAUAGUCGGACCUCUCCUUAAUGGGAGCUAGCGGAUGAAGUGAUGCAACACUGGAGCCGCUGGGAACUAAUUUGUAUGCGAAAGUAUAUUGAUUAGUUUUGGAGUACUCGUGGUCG
test_conditions: 37 °C
property_name: self-splicing fitness (ln)
Numbers only.

- sequence_record: "ACCGAGCAAUAUUACGUAUU"
  self-splicing fitness (ln): -1.98

Would you be so kind as to report self-splicing fitness (ln) for each listed record?
1. AGAGAGCAAUAUUACGUCUU
2. CACUAGCAAUAUUACGAGUC

Outgoing:
-2
-2.01

====

experiment_description: self-splicing fitness, log relative to wild type (ln ratio); higher = more splicing; Tetrahymena group I intron in knt gene, E. coli kanamycin selection, DiMSum; sequences stand for … in CUCUCU…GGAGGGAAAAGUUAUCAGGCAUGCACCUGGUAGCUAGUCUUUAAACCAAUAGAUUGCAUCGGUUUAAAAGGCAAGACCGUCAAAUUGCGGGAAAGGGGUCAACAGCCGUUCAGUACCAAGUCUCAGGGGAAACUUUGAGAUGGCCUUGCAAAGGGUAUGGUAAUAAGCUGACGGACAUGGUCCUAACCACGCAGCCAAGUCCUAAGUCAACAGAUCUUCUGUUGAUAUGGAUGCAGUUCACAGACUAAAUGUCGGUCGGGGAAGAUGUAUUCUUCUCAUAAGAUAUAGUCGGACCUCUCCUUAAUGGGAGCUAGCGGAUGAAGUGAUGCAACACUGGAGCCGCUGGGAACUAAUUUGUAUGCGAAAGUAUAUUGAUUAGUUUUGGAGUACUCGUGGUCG
test_conditions: 30 °C
# cutoff -3 applies to self-splicing fitness (ln); >= gives Y, < gives N

- sequence_record: "CGAUAGCAAUAUUACGUCCU"
  category: "Y"
- sequence_record: "AGAGAGCAAUAUUACGAGGA"
  category: "Y"
- sequence_record: "GCAGAGCAAUAUUACGUCCG"
  category: "Y"
- sequence_record: "UAAUAGCAAUAUUACGCCAU"
  category: "Y"
- sequence_record: "GUCCAGCAAUAUUACGGCAU"
  category: "Y"
- sequence_record: "AUCUAGCAAUAUUACGCACA"
  category: "Y"
- sequence_record: "CGAAAGCAAUAUUACGUGGC"
  category: "Y"
- sequence_record: "CUUGAGCAAUAUUACGCGCG"
  category: "N"
- sequence_record: "CGCCAGCAAUAUUACGUCGC"
  category: "N"
- sequence_record: "GCUAAGCAAUAUUACGUACA"
  category: "Y"

Incoming: Form field: self-splicing fitness (ln) at least -3? Entry: UAUAAGCAAUAUUACGAACU
Outgoing: Y

Incoming: Reported self-splicing fitness (ln) reaches at least -3 for CCCUAGCAAUAUUACGAGAG ?
Outgoing: N

Incoming: Decide: self-splicing fitness (ln) of GCUGAGCAAUAUUACGCAUU >= -3?
Outgoing: Y

Incoming: Is self-splicing fitness (ln) for CCCUAGCAAUAUUACGGUAA at or above -3?
Outgoing: Y

Incoming: In plain terms: is recorded self-splicing fitness (ln) at least -3 for AUAGAGCAAUAUUACGGGUA ?
Outgoing: Y

Incoming: Reported self-splicing fitness (ln) at or above -3? UCUAAGCAAUAUUACGUCCU
Outgoing: Y

Incoming: Entry CCAGAGCAAUAUUACGUAAG : is its self-splicing fitness (ln) no less than -3?
Outgoing: Y

====

Assign self-splicing fitness (ln) to each entry below.
experiment_description: self-splicing fitness, log relative to wild type (ln ratio); higher = more splicing; Tetrahymena group I intron in knt gene, E. coli kanamycin selection, DiMSum; sequences stand for … in CUCUCU…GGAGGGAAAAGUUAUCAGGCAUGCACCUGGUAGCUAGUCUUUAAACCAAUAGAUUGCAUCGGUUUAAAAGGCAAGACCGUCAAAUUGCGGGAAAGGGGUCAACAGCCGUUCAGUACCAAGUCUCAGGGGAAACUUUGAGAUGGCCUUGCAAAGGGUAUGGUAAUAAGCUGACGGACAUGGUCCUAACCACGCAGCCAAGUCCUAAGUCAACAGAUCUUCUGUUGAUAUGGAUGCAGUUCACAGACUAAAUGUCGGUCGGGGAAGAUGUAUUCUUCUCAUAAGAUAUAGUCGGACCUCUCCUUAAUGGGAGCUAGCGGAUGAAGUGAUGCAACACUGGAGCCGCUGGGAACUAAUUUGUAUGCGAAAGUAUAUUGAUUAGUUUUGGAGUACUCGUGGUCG
test_conditions: 30 °C
Give bare numbers.

Reference set, count: 3
- sequence_record: "UCACAGCAAUAUUACGUUAC"
  self-splicing fitness (ln): -3.74
- sequence_record: "CGAUAGCAAUAUUACGUCUA"
  self-splicing fitness (ln): -1.89
- sequence_record: "AACCAGCAAUAUUACGAUUA"
  self-splicing fitness (ln): -0.368

Value sought for every listed sequence: self-splicing fitness (ln).
1. GGAAAGCAAUAUUACGCAGC
2. AGCUAGCAAUAUUACGUCUG
3. AUCCAGCAAUAUUACGAUGC

Outgoing:
1: -2.07; 2: -1.88; 3: -2.01

====

experiment_description: self-splicing fitness, log relative to wild type (ln ratio); higher = more splicing; Tetrahymena group I intron in knt gene, E. coli kanamycin selection, DiMSum; sequences stand for … in CUCUCU…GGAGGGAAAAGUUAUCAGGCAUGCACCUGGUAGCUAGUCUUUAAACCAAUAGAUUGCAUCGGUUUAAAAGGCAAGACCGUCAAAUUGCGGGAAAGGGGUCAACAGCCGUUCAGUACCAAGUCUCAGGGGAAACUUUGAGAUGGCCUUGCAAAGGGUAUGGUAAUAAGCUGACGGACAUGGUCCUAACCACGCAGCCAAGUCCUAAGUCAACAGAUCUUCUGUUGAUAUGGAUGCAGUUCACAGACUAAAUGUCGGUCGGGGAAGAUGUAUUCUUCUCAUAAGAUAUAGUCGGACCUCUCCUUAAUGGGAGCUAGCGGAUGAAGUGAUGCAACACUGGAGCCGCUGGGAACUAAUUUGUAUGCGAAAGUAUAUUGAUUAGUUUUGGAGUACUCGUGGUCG
test_conditions: 30 °C
Class (required): determined from self-splicing fitness (ln); valid ranges are low: < -3; mid: ≥ -3 and < -2; high: ≥ -2

Please review the following examples before continuing.
- sequence_record: "GGAUAGCAAUAUUACGGGUU"
  category: "mid"
- sequence_record: "GCACAGCAAUAUUACGGACA"
  category: "high"
- sequence_record: "ACAAAGCAAUAUUACGGGGG"
  category: "mid"
- sequence_record: "UGGAAGCAAUAUUACGGCAA"
  category: "high"
- sequence_record: "AUGAAGCAAUAUUACGGCUA"
  category: "high"

Incoming: Bin? CGAAAGCAAUAUUACGCCAC
Outgoing: mid

Incoming: Kindly identify the class of CACAAGCAAUAUUACGAGGA .
Outgoing: low

Incoming: Tag the class for CUAAAGCAAUAUUACGUCUU
Outgoing: low

Incoming: Exercise: read the entry UUAUAGCAAUAUUACGCCCA and state which class it falls under.
Outgoing: high

Incoming: Place this sequence in its band: GUUUAGCAAUAUUACGGGCU
Outgoing: low
